Source: ChEMBL document CHEMBL1124223

test system: Providencia rettgeri; test: Minimum inhibitory concentration against Providencia rettgeri. (M1771); format: functional
// NB: equality with 2 µg/mL counts as f; only MIC strictly below is t

INSERT INTO assay_data (molecule, category) VALUES
  ('CCNCC1CCN(c2c(F)cc3c(=O)c(C(=O)O)cn(C4(C)CC4)c3c2F)C1 (stereo not given)', 't');

Task: API: query returns whether the molecule falls strictly under 2 µg/mL in MIC. Query: C=Cn1cc(C(=O)O)c(=O)c2cc(F)c(N3CCC(CNCC)C3)c(F)c21 (stereo not given)
Result: t

Task: API: query returns whether the molecule falls strictly under 2 µg/mL in MIC. Query: CCNCC1CCN(c2c(F)cc3c(=O)c(C(=O)O)cn(C4CC4)c3c2F)C1 (stereo not given) [PD-117558]
Result: t

Task: API: query returns whether the molecule falls strictly under 2 µg/mL in MIC. Query: CCNCC1CCN(c2c(F)cc3c(=O)c(C(=O)O)cn(C4CC4C)c3c2F)C1 (stereo not given)
Result: f

Task: API: query returns whether the molecule falls strictly under 2 µg/mL in MIC. Query: CN1CCN(c2c(F)cc3c(=O)c(C(=O)O)cn(CCF)c3c2F)CC1 [FLEROXACIN]
Result: t

Task: API: query returns whether the molecule falls strictly under 2 µg/mL in MIC. Query: CCNCC1CCN(c2c(F)cc3c(=O)c(C(=O)O)cn(-c4nccs4)c3c2F)C1 (stereo not given)
Result: f

Task: API: query returns whether the molecule falls strictly under 2 µg/mL in MIC. Query: CCNCC1CCN(c2c(F)cc3c(=O)c(C(=O)O)cn(OC)c3c2F)C1 (stereo not given)
Result: t

Task: API: query returns whether the molecule falls strictly under 2 µg/mL in MIC. Query: CCNCC1CCN(c2c(F)cc3c(=O)c(C(=O)O)cn(C4CCC4)c3c2F)C1 (stereo not given)
Result: f

Task: API: query returns whether the molecule falls strictly under 2 µg/mL in MIC. Query: CCNCC1CCN(c2c(F)cc3c(=O)c(C(=O)O)cn(C)c3c2F)C1 (stereo not given)
Result: t

Task: API: query returns whether the molecule falls strictly under 2 µg/mL in MIC. Query: CCNCC1CCN(c2c(F)cc3c(=O)c(C(=O)O)cn(C(C)C)c3c2F)C1 (stereo not given)
Result: f

----------
target: DNA gyrase (Escherichia coli) (UniProt P0AES6+P0AES4); assay: Concentration required for 50% inhibition of gyrase.; type: protein-complex assay
metric: IC50

INSERT INTO assay_data (molecule, result) VALUES
  ('CCNCC1CCN(c2c(F)cc3c(=O)c(C(=O)O)cn(-c4ccccc4)c3c2F)C1 (stereo not given)', '29 µg/mL'),
  ('CCNCC1CCN(c2c(F)cc3c(=O)c(C(=O)O)cn(C(C)C)c3c2F)C1 (stereo not given)', '28 µg/mL'),
  ('CCNCC1CCN(c2c(F)cc3c(=O)c(C(=O)O)cn(C4CCCC4)c3c2F)C1 (stereo not given)', '28 µg/mL');

For every item below, please supply its IC50.
1. CCNCC1CCN(c2c(F)cc3c(=O)c(C(=O)O)cn(NC)c3c2F)C1 (stereo not given)
2. CCNCC1CCN(c2c(F)cc3c(=O)c(C(=O)O)cn(CCF)c3c2F)C1 (stereo not given)

Result:
1: 27 µg/mL; 2: 7.5 µg/mL

For every item below, please supply its IC50.
1. CCNCC1CCN(c2c(F)cc3c(=O)c(C(=O)O)cn(C4CCCCC4)c3c2F)C1 (stereo not given)
2. CCNCC1CCN(c2c(F)cc3c(=O)c(C(=O)O)cn(CC4CC4)c3c2F)C1 (stereo not given)
3. CCNCC1CCN(c2c(F)cc3c(=O)c(C(=O)O)cn(C4CCC4)c3c2F)C1 (stereo not given)
4. CCNCC1CCN(c2c(F)cc3c(=O)c(C(=O)O)cn(OC)c3c2F)C1 (stereo not given)

Result:
["30 µg/mL", "30 µg/mL", "26 µg/mL", "27 µg/mL"]

Task: Need IC50, item CCNCC1CCN(c2c(F)cc3c(=O)c(C(=O)O)cn(C4(C)CC4)c3c2F)C1 (stereo not given)
Result: 6.3 µg/mL

----------
system: Klebsiella pneumoniae; test: Minimum inhibitory concentration against Klebsiella pneumoniae (MGH-2); assay type: functional
metric: log10(MIC) (log10 of the value in µg/mL)
A difference of one corresponds to tenfold MIC; all values are log10 with MIC in µg/mL.

Use the examples below as a reference point.
INSERT INTO measurements (molecule, metric, numericresult) VALUES
  ('CCNCC1CCN(c2c(F)cc3c(=O)c(C(=O)O)cn(NC)c3c2F)C1 (centres undefined)', 'log10(MIC)', -0.70),
  ('CNn1cc(C(=O)O)c(=O)c2cc(F)c(N3CCN(C)CC3)cc21', 'log10(MIC)', -0.70),
  ('CCNCC1CCN(c2c(F)cc3c(=O)c(C(=O)O)cn(C4CCCC4)c3c2F)C1 (centres undefined)', 'log10(MIC)', 0.49),
  ('CCNCC1CCN(c2c(F)cc3c(=O)c(C(=O)O)cn(C4CCCCC4)c3c2F)C1 (centres undefined)', 'log10(MIC)', 1.10),
  ('CCNCC1CCN(c2c(F)cc3c(=O)c(C(=O)O)cn(-c4ccccc4)c3c2F)C1 (centres undefined)', 'log10(MIC)', 0.20);

For every item below, please supply its log10(MIC).
1. CCNCC1CCN(c2c(F)cc3c(=O)c(C(=O)O)cn(CC(F)(F)F)c3c2F)C1 (centres undefined)
2. CCNCC1CCN(c2c(F)cc3c(=O)c(C(=O)O)cn(-c4nccs4)c3c2F)C1 (centres undefined)
3. CN1CCN(c2cc3c(cc2F)c(=O)c(C(=O)O)cn3-c2ccc(F)cc2)CC1
4. CCNCC1CCN(c2c(F)cc3c(=O)c(C(=O)O)cn(C4CC4C)c3c2F)C1 (centres undefined)

Result:
-0.10
0.49
-0.40
0.20

----------
system: Mus musculus; assay: In vivo activity against Streptococcus pneumoniae (po); type: functional; conditions: read-out: PD50
Would you mind telling me the reported ED50 of each entry?

INSERT INTO assay_data (molecule, assayedtarget, metric, result) VALUES
  ('CCNCC1CCN(c2c(F)cc3c(=O)c(C(=O)O)cn(C4CC4)c3c2F)C1 (stereo not given)', 'Mus musculus', 'ED50', '3 mg/kg'),
  ('CN1CCN(c2cc3c(cc2F)c(=O)c(C(=O)O)cn3-c2ccc(F)cc2)CC1', 'Mus musculus', 'ED50', '16 mg/kg'),
  ('CCNCC1CCN(c2c(F)cc3c(=O)c(C(=O)O)cn(CC)c3c2F)C1 (stereo not given)', 'Mus musculus', 'ED50', '20 mg/kg');

For every item below, please supply its ED50.
1. O=C(O)c1cn(C2CC2)c2cc(N3CCNCC3)c(F)cc2c1=O
2. CCn1cc(C(=O)O)c(=O)c2cc(F)c(N3CCNCC3)cc21

Result:
1. > 100 mg/kg
2. > 100 mg/kg

----------
Would you mind telling me the reported MIC of each entry?
tested on: Enterobacter; test: Minimum inhibitory concentration against gram-negative enterobacteriaceae.; type: functional
One number for each entry, in µg/mL.

Use the examples below as a reference point.
INSERT INTO assay_data (compound, unitsymbol, numericresult) VALUES
  ('CCNCC1CCN(c2c(F)cc3c(=O)c(C(=O)O)cn(C4CCCCC4)c3c2F)C1 (configuration not stated)', 'µg/mL', 16.5),
  ('CCNCC1CCN(c2c(F)cc3c(=O)c(C(=O)O)cn(C)c3c2F)C1 (configuration not stated)', 'µg/mL', 0.53);

For every item below, please supply its MIC.
1. CCNCC1CCN(c2c(F)cc3c(=O)c(C(=O)O)cn(C4CCC4)c3c2F)C1 (configuration not stated)
2. CCNCC1CCN(c2c(F)cc3c(=O)c(C(=O)O)cn(OC)c3c2F)C1 (configuration not stated)
3. CCNCC1CCN(c2c(F)cc3c(=O)c(C(=O)O)cn(-c4ccc(F)cc4)c3c2F)C1 (configuration not stated)
4. CCNCC1CCN(c2c(F)cc3c(=O)c(C(=O)O)cn(C4CC4)c3c2F)C1 (configuration not stated)
5. CCNCC1CCN(c2c(F)cc3c(=O)c(C(=O)O)cn(CC4CC4)c3c2F)C1 (configuration not stated)
6. CCNCC1CCN(c2c(F)cc3c(=O)c(C(=O)O)cn(CCF)c3c2F)C1 (configuration not stated)
7. C=Cn1cc(C(=O)O)c(=O)c2cc(F)c(N3CCC(CNCC)C3)c(F)c21 (configuration not stated)

Result:
1. 0.4
2. 0.46
3. 0.7
4. 0.06
5. 2.09
6. 0.23
7. 0.3

For every item below, please supply its MIC.
1. CCNCC1CCN(c2c(F)cc3c(=O)c(C(=O)O)cn(C4CCCC4)c3c2F)C1 (configuration not stated)
2. CCNCC1CCN(c2c(F)cc3c(=O)c(C(=O)O)cn(-c4nccs4)c3c2F)C1 (configuration not stated)
3. CCNCC1CCN(c2c(F)cc3c(=O)c(C(=O)O)cn(CC(F)(F)F)c3c2F)C1 (configuration not stated)

Result:
1. 3.6
2. 3.14
3. 1.05

For every item below, please supply its MIC.
1. CCNCC1CCN(c2c(F)cc3c(=O)c(C(=O)O)cn(C4(C)CC4)c3c2F)C1 (configuration not stated)
2. CN1CCN(c2c(F)cc3c(=O)c(C(=O)O)cn(CCF)c3c2F)CC1
3. CCNCC1CCN(c2c(F)cc3c(=O)c(C(=O)O)cn(CC)c3c2F)C1 (configuration not stated)
4. CCNCC1CCN(c2c(F)cc3c(=O)c(C(=O)O)cn(C(C)C)c3c2F)C1 (configuration not stated)

Result:
1: 1.38; 2: 0.2; 3: 0.17; 4: 1.05

For every item below, please supply its MIC.
1. CCNCC1CCN(c2c(F)cc3c(=O)c(C(=O)O)cn(C4CC4C)c3c2F)C1 (configuration not stated)
2. CCNCC1CCN(c2c(F)cc3c(=O)c(C(=O)O)cn(-c4ccccc4)c3c2F)C1 (configuration not stated)
3. CN1CCN(c2cc3c(cc2F)c(=O)c(C(=O)O)cn3-c2ccc(F)cc2)CC1
4. CNn1cc(C(=O)O)c(=O)c2cc(F)c(N3CCN(C)CC3)cc21
5. O=C(O)c1cn(C2CC2)c2cc(N3CCNCC3)c(F)cc2c1=O
6. CCNCC1CCN(c2c(F)cc3c(=O)c(C(=O)O)cn(NC)c3c2F)C1 (configuration not stated)

Result:
1. 1.59
2. 1.83
3. 0.4
4. 0.1
5. 0.06
6. 0.3
